Every entry's value here was drawn from ChEMBL document CHEMBL1250510.

test: Antioxidant activity assessed as hydrogen peroxide scavenging activity by spectrophotometry; format: functional

# molecule, IC50 [µM]
records = [
    ("O=C1O[C@H]([C@@H](O)CO)C(O)=C1O [ASCORBIC ACID]", 602),
]

----------
test: Antioxidant activity assessed as singlet oxygen scavenging activity by spectrophotometry; format: functional
pIC50: −log10 of the molar value.

# smiles.text, pIC50
measured = [
    ("O=c1c(O)c(-c2ccc(O)c(O)c2)oc2cc(O)cc(O)c12", 5.74),
]

----------
assay: Antioxidant activity assessed as hypocholrous acid scavenging activity by spectrophotometry; type: functional
measured.property: log10(IC50) (log10 of the value in µM)

# compound, log10(IC50)
records = [
    ("O=c1c2ccccc2oc2cc(-c3ccc(O)cc3)c(-c3ccc(O)c(O)c3)cc12", 1.17),
    ("O=c1c2ccccc2oc2cc(-c3ccc(O)c(O)c3)c(-c3ccccc3)cc12", 1.03),
    ("O=C(O)CCCC[C@@H](S)CCS [DIHYDROLIPOIC ACID]", 0.36),
    ("O=c1c2ccccc2oc2cc(-c3ccccc3)c(-c3ccc(O)c(O)c3)cc12", 1.20),
    ("O=c1c2ccccc2oc2cc(-c3ccc(O)cc3)c(-c3ccccc3)cc12", 1.73),
    ("O=c1c2ccccc2oc2cc(-c3ccc(O)c(O)c3)c(-c3ccc(O)c(O)c3)cc12", 0.08),
    ("O=c1c2ccccc2oc2cc(-c3ccccc3)c(-c3ccccc3)cc12", 2.19),
    ("O=c1c2ccccc2oc2cc(-c3ccc(O)cc3)c(-c3ccc(O)cc3)cc12", 1.35),
    ("O=c1c2ccccc2oc2cc(-c3ccccc3)c(-c3ccc(O)cc3)cc12", 1.86),
    ("O=c1c2ccccc2oc2cc(-c3ccc(O)c(O)c3)c(-c3ccc(O)cc3)cc12", 0.88),
]
